Values from PubChem BioAssay (NCI)

# System: SF-268 CNS
# test-method-notes: NCI-60 one-dose screen, 48 h
# condition: 10 µM unless noted
This is part of a sample that, as a whole, favours compounds with a hit. Of some 83,000 tested, about 20% had one in any assay. Calls of active or inactive are those of the source. Rule for the calls: active = growth percent below 10; inactive = the rest.
Possible outcomes: active, inactive

- compound: "Cc1ccc2c(c1)/C(=N\\N=C/c1cn(C(C)C)c3ccccc13)C(=O)N2"
  category-label: "inactive"
- compound: "CC(C)[C@H]1COC(=O)N1[C@@H]1C(=O)N([C@@H](CCC(=O)N2CCN(C3CCCC3)CC2)C(=O)N[C@@H]2CCCc3ccccc32)[C@@H]1/C=C/c1cccc(Cl)c1"
  category-label: "inactive"
- compound: "CCCCCCCCCN(CCCCCCCCC)C(C)C(=O)c1ccc2cc(Br)c3ccccc3c2c1 (stereo not drawn)"
  category-label: "inactive"
- compound: "CC(C)C1=NOC(=O)C1=Cc1cn(-c2ccccc2)nc1-c1ccc(Br)cc1"
  category-label: "inactive"
- compound: "Cc1cnc(N)nc1OCCNC(=O)c1cccc(-c2ccc(S(=O)(=O)Nc3ccc4c(c3)N(C(=O)C3CC3)CCC4)cc2)c1"
  category-label: "inactive"
- compound: "COc1cc2c(cc1OC(C)=O)C(=O)CCCC2"
  category-label: "inactive"
- compound: "CCCCCCSc1ncnc2nc[nH]c12"
  category-label: "inactive"
- compound: "O=c1cc(-c2ccccc2)oc2c(O)c(O)ccc12"
  category-label: "inactive"
- compound: "CC1(C)[C@@H](NOCCCN)CC[C@]2(C)[C@H]3C(=O)C=C4[C@@H]5C[C@](C)(C(=O)O)CC[C@]5(C)CC[C@@]4(C)[C@]3(C)CC[C@@H]12"
  category-label: "active"
- compound: "CCCCCn1sc(=O)n(Cc2ccc(CNC(=O)OCc3ccc4cccc(O)c4n3)cc2)c1=O"
  category-label: "inactive"
- compound: "CC(=O)O.CC(=O)O.O.[Fe]"
  category-label: "inactive"
- compound: "COc1cc(NCc2cn(-c3ccc(C(=O)O)cc3)nc2-c2ccc(C(=O)O)cc2)cc(OC)c1OC"
  category-label: "inactive"
- compound: "CCN(CCO)CCC(=O)c1ccc([N+](=O)[O-])cc1"
  category-label: "inactive"
- compound: "CCCCC1COc2cccc3c2N1C=C/C3=C\\C(=O)n1ccc2ccccc21 (stereo not drawn)"
  category-label: "inactive"
- compound: "CC(=O)CC(=O)SC1=NCCS1"
  category-label: "inactive"
- compound: "COc1cc(C)cc2oc3oc(=O)c(-c4nc5ccccc5s4)cc3c(=O)c12"
  category-label: "inactive"
- compound: "CC1(C)C(=O)/C(=C\\c2cccnc2)C[C@]2(C)[C@H]3CC[C@@H]4[C@H]5[C@H](C(=O)/C=C/c6cccnc6)CC[C@]5(C(=O)O)CC[C@@]4(C)[C@]3(C)CC[C@@H]12"
  category-label: "active"
- compound: "CC1(C)CC[C@]2(C(=O)O)CC[C@]3(C)C(=CC[C@@H]4[C@@]5(C)C/C(=C/c6ccco6)C(=O)C(C)(C)[C@@H]5CC[C@]43C)[C@@H]2C1"
  category-label: "active"
